- Target desc: Protein Mdm4 (Homo sapiens) + E3 ubiquitin-protein ligase Mdm2 (Homo sapiens) (UniProt O15151+Q00987)
- Sequence (O15151 whole entry, looked up): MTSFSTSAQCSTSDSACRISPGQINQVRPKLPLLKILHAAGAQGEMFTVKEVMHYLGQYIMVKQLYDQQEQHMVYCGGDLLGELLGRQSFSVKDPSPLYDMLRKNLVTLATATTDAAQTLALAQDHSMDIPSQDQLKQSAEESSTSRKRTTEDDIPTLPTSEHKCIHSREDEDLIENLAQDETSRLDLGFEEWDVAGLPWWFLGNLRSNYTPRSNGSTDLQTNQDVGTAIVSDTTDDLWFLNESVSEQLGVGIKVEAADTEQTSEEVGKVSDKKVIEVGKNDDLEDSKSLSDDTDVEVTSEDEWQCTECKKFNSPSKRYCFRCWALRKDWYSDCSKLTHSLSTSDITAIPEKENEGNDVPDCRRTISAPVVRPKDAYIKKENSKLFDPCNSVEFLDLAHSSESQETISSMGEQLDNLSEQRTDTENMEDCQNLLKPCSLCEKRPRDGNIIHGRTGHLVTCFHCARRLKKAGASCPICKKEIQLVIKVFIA
- Sequence (Q00987 whole entry, looked up): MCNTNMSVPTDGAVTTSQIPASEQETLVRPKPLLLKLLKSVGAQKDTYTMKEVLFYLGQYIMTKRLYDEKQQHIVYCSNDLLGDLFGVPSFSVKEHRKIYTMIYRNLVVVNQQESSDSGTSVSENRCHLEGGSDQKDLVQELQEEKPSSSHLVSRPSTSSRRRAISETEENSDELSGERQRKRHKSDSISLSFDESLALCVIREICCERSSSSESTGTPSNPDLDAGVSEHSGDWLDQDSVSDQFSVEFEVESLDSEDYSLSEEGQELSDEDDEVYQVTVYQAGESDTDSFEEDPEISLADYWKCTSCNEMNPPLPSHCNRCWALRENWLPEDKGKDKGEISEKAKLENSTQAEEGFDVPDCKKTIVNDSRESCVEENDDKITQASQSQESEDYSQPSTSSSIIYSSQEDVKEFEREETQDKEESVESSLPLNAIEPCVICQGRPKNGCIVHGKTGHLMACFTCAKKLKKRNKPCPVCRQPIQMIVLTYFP
- Assay text: inhibitors of human Mdm2-MdmX association, primary screen, cell-based, luminescence, split luciferase, SaOS-2, uHTS (AID 485346)
- Details: SaOS-2 split-luciferase Mdm2/MdmX complementation, at 8 µM, stronger effect = higher value
Among all 330,000 compounds or so, about 10,000 (3%) were called active. The full list was thinned out, with actives kept by preference.
// label = true if inhibition is not less than 10%, otherwise false

{"Molecule": "Nc1nnn(CC(=O)N/N=C/c2ccccc2)n1", "Qualitative label": "true"}
{"Molecule": "CCCCn1ccnc1C(=O)c1cccc(S(=O)(=O)N2c3ccccc3CC2C)c1 (stereo not given)", "Qualitative label": "true"}
{"Molecule": "O=C(Cn1nnc(-c2ccccc2)n1)N/N=C/c1ccc(-c2ccc(Cl)cc2)o1", "Qualitative label": "true"}
{"Molecule": "COc1ccc(/C=C/C(=O)Nc2ccc(C)cc2)cc1S(=O)(=O)N1CCOCC1", "Qualitative label": "true"}
{"Molecule": "COc1ccc2[nH]c(=O)c(CN(Cc3cccnc3)S(=O)(=O)c3ccccc3F)cc2c1", "Qualitative label": "true"}

Query: Reported inhibition reaches at least 10% for Cc1ccc(NC(=O)C2CC2)cc1S(=O)(=O)N1CCOCC1 ?
Result: false

Query: Reported inhibition reaches at least 10% for CCN(Cc1cc2cc(C)ccc2[nH]c1=O)S(=O)(=O)c1ccccc1 ?
Result: true

Query: Reported inhibition reaches at least 10% for COc1ccc(/C=C/C(=O)N2CCCC2)cc1OC ?
Result: false

###

- Target desc: Protein Mdm4 (Homo sapiens) + E3 ubiquitin-protein ligase Mdm2 (Homo sapiens) (UniProt O15151+Q00987)
- Assay text: inhibitors of human Mdm2-MdmX association, primary screen, cell-based, luminescence, split luciferase, SaOS-2, uHTS (AID 485346)
- Details: SaOS-2 split-luciferase Mdm2/MdmX complementation, at 8 µM, stronger effect = higher value
About 10,000 (3%) of roughly 330,000 compounds were called active. Shown is part of a subset that was picked to be rich in actives.
As shown below, each of these compounds has a reported inhibition value.
Give a bare numeral; the unit % is implied.

Some solved cases for reference:
{"Compound": "Cc1c(C=O)c2ccccn2c1C(=O)c1ccncc1", "Metric name": "inhibition", "Observed value": 22.9}
{"Compound": "N#Cc1ncc(C(F)(F)F)cc1Oc1cccnc1", "Metric name": "inhibition", "Observed value": -4.54}
{"Compound": "COc1cc(NC(=O)c2[nH]cnc2C(N)=O)cc(C(=O)Nc2cccc(C(F)(F)F)c2)c1", "Metric name": "inhibition", "Observed value": 97.2}

Moving on to another compound below.
Query: Look up and report measured inhibition for this entry: Cc1nonc1C1CCCN1Cc1nc(-c2ccc(F)cc2F)oc1C (configuration not stated)
Result: 29.7

###

- Target desc: Protein Mdm4 (Homo sapiens) + E3 ubiquitin-protein ligase Mdm2 (Homo sapiens) (UniProt O15151+Q00987)
- Assay text: inhibitors of human Mdm2-MdmX association, primary screen, cell-based, luminescence, split luciferase, SaOS-2, uHTS (AID 485346)
- Details: SaOS-2 split-luciferase Mdm2/MdmX complementation, at 8 µM
About 10,000 (3%) of roughly 330,000 compounds were called active.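 The calls were made as follows: active = inhibition of at least 50% at 8 µM in the primary screen; inactive = the rest.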 This excerpt belongs to a sample that is enriched for actives.
Valid outcomes are listed here; reply with one: Y (active), N (inactive)

{"Compound": "C/C(=N\\N=C(N)N)c1ccc(Cl)cc1", "Qualitative label": "Y"}
{"Compound": "CCC(=O)NCc1cc(-c2nn(C)c(=O)c3ccccc23)ccc1OC", "Qualitative label": "N"}
{"Compound": "CCCCN(C)CCNC(=O)CSCc1ccc(C)cc1", "Qualitative label": "N"}
{"Compound": "COc1ccc(-c2nn(C)c(=O)c3ccccc23)cc1CNC(=O)C1CCCCC1", "Qualitative label": "N"}
{"Compound": "COc1ccccc1-c1sc2ccccc2c1C#CC1(O)CCCCC1", "Qualitative label": "N"}
{"Compound": "NS(=O)(=O)c1ccc(N2C(=O)C3C4CC(C(Br)C4Br)C3C2=O)cc1 (stereo not drawn)", "Qualitative label": "N"}
{"Compound": "O/N=C(\\C[n+]1ccccc1)c1ccc(Br)cc1", "Qualitative label": "N"}
{"Compound": "COCCNC(=O)C(OC(=O)c1cccs1)c1ccc(F)cc1 (stereo not drawn)", "Qualitative label": "N"}

Query: Test call, this compound: CCC(=O)c1ccc(OCC(O)Cn2nc(C)c(C(C)=O)c2C)cc1 (stereo not drawn)
Result: N

Query: Test call, this compound: O=C(N[C@H]1C/C=C\C(c2ccc(F)cc2)N(Cc2ccccc2)C(=O)C1)OCC1c2ccccc2-c2ccccc21 (stereo partly drawn)
Result: N

Query: Test call, this compound: COc1ccc(-c2cc(C(=O)N/N=C/c3cccnc3)c3ccccc3n2)c(OC)c1
Result: N

Query: Test call, this compound: CC(C)(C)C(=O)NC1CC2CCCC(C1)N2C(=O)Nc1ccccc1F (stereo not drawn)
Result: N

Query: Test call, this compound: OCC[C@H]1C[C@@H](O)[C@H](O)[C@]2(OCCCc3ccccc32)O1
Result: N

Query: Test call, this compound: CC1=CC(=C(C#N)c2nc3ccccc3s2)C=C(C)N1c1ccc(F)cc1F
Result: N

Query: Test call, this compound: CC1CCCC(NC(=O)c2cc(-c3ccncc3)nc3ccccc23)C1C (stereo not drawn)
Result: N

Query: Test call, this compound: CCN(C(=O)CSc1nnnn1-c1ccc(OC)cc1)C1CCS(=O)(=O)C1 (stereo not drawn)
Result: N

Query: Test call, this compound: OCCNc1nc(Nc2ccc(Cl)c(Cl)c2)nc2ccccc12
Result: Y

###

- Target desc: Protein Mdm4 (Homo sapiens) + E3 ubiquitin-protein ligase Mdm2 (Homo sapiens) (UniProt O15151+Q00987)
- Assay text: inhibitors of human Mdm2-MdmX association, primary screen, cell-based, luminescence, split luciferase, SaOS-2, uHTS (AID 485346)
- Details: SaOS-2 split-luciferase Mdm2/MdmX complementation, at 8 µM, stronger effect = higher value
Out of some 330,000 compounds screened, about 10,000 (3%) were called active. The list comes from a sample in which actives are over-represented; it also holds close analogues and randomly drawn compounds.
Metric name: inhibition (%)
Give a bare numeral; the unit % is implied.

Some solved cases for reference:
{"Mol smiles": "CC1(C)Cc2nc3sc4c(SCC(=O)NC(c5ccccc5)c5ccccc5)ncnc4c3cc2CO1", "inhibition, %": 71.8}
{"Mol smiles": "C=CCn1c(=S)[nH]c2nc3c(cc2c1=O)COC(C)(C)C3", "inhibition, %": -32.6}
{"Mol smiles": "CC(C)CCSc1ncnc2c1oc1nc3c(cc12)COC(C)(C)C3", "inhibition, %": -3.42}
{"Mol smiles": "CCCCOc1ccc(C(=O)N/C(=C/C=C/c2ccccc2)C(=O)N2CCOCC2)cc1", "inhibition, %": -5.91}

Moving on to another compound below.
Query: Look up and report measured inhibition for this entry: COc1ccc(-c2cn[nH]c2-c2ccc(OC)cc2)cc1
Result: 63.5

###

- Target desc: Protein Mdm4 (Homo sapiens) + E3 ubiquitin-protein ligase Mdm2 (Homo sapiens) (UniProt O15151+Q00987)
- Assay text: inhibitors of human Mdm2-MdmX association, primary screen, cell-based, luminescence, split luciferase, SaOS-2, uHTS (AID 485346)
- Details: SaOS-2 split-luciferase Mdm2/MdmX complementation, at 8 µM, stronger effect = higher value
Among all 330,000 compounds or so, about 10,000 (3%) were called active. For the sample, actives were picked, then their nearest neighbours and some compounds at random.
// label = YES if inhibition is not less than 30%, otherwise NO

Solved entries:
{"Compound": "Cc1nnc(NC(=O)c2ccc3nccnc3c2)s1", "Qualitative label": "NO"}
{"Compound": "CC(NC(=O)Nc1ccccc1)C(c1cccs1)N1CCN(c2ccccc2)CC1 (stereo unspecified)", "Qualitative label": "YES"}
{"Compound": "O=C(N[C@@H](Cc1c[nH]c2ccccc12)C(=O)O)OCC1c2ccccc2-c2ccccc21", "Qualitative label": "NO"}

Query: Reported inhibition reaches at least 30% for CCCn1nc(C(=O)NNC(=O)CSCC(=O)Nc2cc(C)on2)c2ccccc2c1=O ?
Result: NO

Query: Reported inhibition reaches at least 30% for COc1cccc(-c2cc3nc4c(c(N5CCC6(CC5)OCCO6)n3n2)CCCC4)c1 ?
Result: NO

Query: Reported inhibition reaches at least 30% for COc1ccc(NC(=O)CN(C)C(=O)c2cccc(S(=O)(=O)N3CCN(c4ccccc4)CC3)c2)cc1 ?
Result: NO

Query: Reported inhibition reaches at least 30% for Cc1ccc(-n2c(=O)cc(N3CCN(Cc4ccccc4)CC3)[nH]c2=O)cc1 ?
Result: NO

Query: Reported inhibition reaches at least 30% for CC(C)Oc1c(Br)cc(Br)cc1/C=N/NC(N)=S ?
Result: YES

Query: Reported inhibition reaches at least 30% for COCCSc1nnc(NC(=O)CCS(=O)(=O)Cc2ccccc2)s1 ?
Result: NO

Query: Reported inhibition reaches at least 30% for CC(=O)c1ccc(S(=O)(=O)N2CCN(C(=O)/C=C/c3ccc4ccccc4n3)CC2)cc1 ?
Result: YES

Query: Reported inhibition reaches at least 30% for COc1ccccc1NC(=O)CCC(=O)N1CC(C)Oc2ccc(C)cc21 (stereo unspecified) ?
Result: NO

Query: Reported inhibition reaches at least 30% for COC(=O)[C@]1(C)N[C@H](CN(C)C(=O)c2ccc(C(C)(C)C)cc2)[C@@H]2C(=O)N(C)C(=O)[C@@H]21 ?
Result: NO

Query: Reported inhibition reaches at least 30% for CCCn1nc(C(=O)Nc2ccc3nc(C)sc3c2)c2ccccc2c1=O ?
Result: YES

Query: Reported inhibition reaches at least 30% for CC(NC(=S)Nc1ccccc1)C(c1cccs1)N1CCOCC1 (stereo unspecified) ?
Result: NO

Query: Reported inhibition reaches at least 30% for CSc1nnc(NC(=O)c2nc(S(=O)(=O)Cc3ccc(C)cc3)ncc2Cl)s1 ?
Result: YES

Query: Reported inhibition reaches at least 30% for CCCC(=O)NC(C)C(c1cccs1)N1CCN(c2ccccc2)CC1 (stereo unspecified) ?
Result: NO

Query: Reported inhibition reaches at least 30% for Cc1ccc(C(=O)NN(CCC#N)C2=NS(=O)(=O)c3ccccc32)cc1 ?
Result: NO

Query: Reported inhibition reaches at least 30% for Cc1nc2nc(SCC(=O)Nc3cccc(F)c3)[nH]c2cc1Br ?
Result: NO
